Assay: Lipophilicity by gradient RP-HPLC (C18, pH 7.4): CHI, chrom logD, PFI
Assay type: physicochemical
Settings: C18 Hypersil GOLD reversed-phase HPLC column, pH 7.4, C18 column, pH 7.4; Chrom logD = 0.0525 × CHI − 1.467
Property label: chromatographic logD

>  <Smiles string>
Cl.Clc1ccccc1Nc1nc(NCCOc2ccccc2)nc(N2CCOCC2)n1

>  <Property label>
chromatographic logD

>  <Number>
4.01

$$$$
>  <Smiles string>
Cl.Clc1ccccc1Nc1nc(NCCCc2ccccc2)nc(N2CCOCC2)n1

>  <Property label>
chromatographic logD

>  <Number>
4.71

$$$$
>  <Smiles string>
Cl.Clc1ccccc1Nc1nc(NCCc2ccccc2)nc(N2CCOCC2)n1

>  <Property label>
chromatographic logD

>  <Number>
3.95

$$$$
>  <Smiles string>
Cl.Clc1ccccc1Nc1nc(N2CCOCC2)nc(N2CCN(c3ccccc3)CC2)n1

>  <Property label>
chromatographic logD

>  <Number>
4.15

$$$$
>  <Smiles string>
Cl.Clc1ccccc1Nc1nc(NCCNc2ccccc2)nc(N2CCOCC2)n1

>  <Property label>
chromatographic logD

>  <Number>
3.94

$$$$

====

Test: Phospholipid affinity by IAM-HPLC (IAM.PC.DD2 column)
Assay type: physicochemical
Conditions: pH 7.4, phospholipidosis threshold >50
The entries below are paired with their reported CHI IAM (IAM-HPLC).
# output: bare number, no unit

Consider the compound Cl.Clc1ccccc1Nc1nc(NCCOc2ccccc2)nc(N2CCOCC2)n1 [Compound 11] and give its recorded CHI IAM (IAM-HPLC).
45.92

Consider the compound Cl.Clc1ccccc1Nc1nc(Nc2ccccc2)nc(N2CCOCC2)n1 [Compound 4] and give its recorded CHI IAM (IAM-HPLC).
46.34

Consider the compound Cl.Clc1ccccc1Nc1nc(NCCCc2ccccc2)nc(N2CCOCC2)n1 [Compound 6] and give its recorded CHI IAM (IAM-HPLC).
51.63

Consider the compound Cl.Clc1ccccc1Nc1nc(NCCNc2ccccc2)nc(N2CCOCC2)n1 [Compound 10] and give its recorded CHI IAM (IAM-HPLC).
44.55

Consider the compound Cl.Fc1ccc(N2CCN(CCNc3nc(Nc4ccccc4Cl)nc(N4CCOCC4)n3)CC2)cc1 [Compound 7] and give its recorded CHI IAM (IAM-HPLC).
49.59

Consider the compound Cl.Clc1ccccc1Nc1nc(NCCc2ccccc2)nc(N2CCOCC2)n1 [Compound 3] and give its recorded CHI IAM (IAM-HPLC).
55.97

====

The entries below are paired with their reported CHI IAM (IAM-HPLC).
Assay: Phospholipid affinity by IAM-HPLC (IAM.PC.DD2 column)
Format: physicochemical
Settings: pH 7.4, phospholipidosis threshold >50
# output: bare number, no unit

Sample records with CHI IAM (IAM-HPLC):
>  <Molecule>
Cl.Clc1ccccc1Nc1nc(NCc2ccccc2)nc(N2CCOCC2)n1 [Compound 5]

>  <Number>
46.45

$$$$
>  <Molecule>
Cl.Clc1ccccc1Nc1nc(N2CCOCC2)nc(N2CCN(c3ccccc3)CC2)n1 [Compound 8]

>  <Number>
47.79

$$$$

Let us move to another entry and its CHI IAM (IAM-HPLC).
Consider the molecule Cl.Clc1ccccc1Nc1nc(N2CCOCC2)nc(N2CCN(c3nsc4ccccc34)CC2)n1 [Compound 9] and give its recorded CHI IAM (IAM-HPLC).
48.02
